B1: CCND1 (parent)
chain: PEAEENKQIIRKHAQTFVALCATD

variants of: B1; assay: protein stability index of a GFP-peptide fusion (GPS, HEK-293T) (PSI 1-6); higher = more stable; conditions: c terminus: a fixed tail appended;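 also: lentivirally expressed fusions sorted by FACS into six bins by GFP to DsRed ratio, PSI derived from sequencing read proportions per bin multiplied by bin number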
Class field: derived from protein stability index; ranges low-valued (below 3), mid-valued (3 to below 4), high-valued (4 or more)

Enquiry: Lab log: A22T — assign protein stability index category
Return: low-valued

Enquiry: Moving on to Q15K
Return: low-valued

Enquiry: Moving on to L20P
Return: high-valued

Enquiry: Moving on to T16W
Return: low-valued

Enquiry: Moving on to H13F
Return: low-valued

Enquiry: Moving on to A22V
Return: low-valued

Enquiry: Moving on to Q8A
Return: low-valued

Enquiry: Moving on to A19P
Return: high-valued

Enquiry: Moving on to E5I
Return: low-valued

Enquiry: Moving on to R11N
Return: mid-valued

Enquiry: Moving on to Q8Y
Return: low-valued

Enquiry: Moving on to D24G
Return: low-valued

Enquiry: Moving on to F17T
Return: high-valued

Enquiry: Moving on to H13L
Return: low-valued

Enquiry: Moving on to T16R
Return: high-valued

Enquiry: Moving on to N6V
Return: low-valued

Enquiry: Moving on to A14T
Return: low-valued

Enquiry: Moving on to C21G
Return: high-valued

Enquiry: Moving on to K12E
Return: high-valued

Enquiry: Moving on to A3Q
Return: low-valued

Enquiry: Moving on to Q8M
Return: low-valued

Enquiry: Moving on to Q8E
Return: mid-valued

Enquiry: Moving on to E5Y
Return: low-valued

Enquiry: Moving on to T16I
Return: mid-valued

Enquiry: Moving on to N6P
Return: low-valued

Enquiry: Moving on to V18G
Return: high-valued

Enquiry: Moving on to T16E
Return: high-valued

Enquiry: Moving on to V18K
Return: high-valued

Enquiry: Moving on to E2W
Return: low-valued

Enquiry: Moving on to A19K
Return: mid-valued

Enquiry: Moving on to R11Q
Return: mid-valued

Enquiry: Moving on to Q8D
Return: mid-valued

Enquiry: Moving on to E4G
Return: low-valued

Enquiry: Moving on to D24C
Return: low-valued

Enquiry: Moving on to D24H
Return: low-valued

Enquiry: Moving on to T16L
Return: mid-valued

Enquiry: Moving on to I9L
Return: mid-valued

Enquiry: Moving on to A14Q
Return: low-valued

Enquiry: Moving on to C21V
Return: low-valued

Enquiry: Moving on to D24P
Return: mid-valued

Enquiry: Moving on to I9K
Return: low-valued

Enquiry: Moving on to A3P
Return: low-valued

Enquiry: Moving on to Q15E
Return: mid-valued
